- Test system: D-amino acylase
- assay_info: Substrate specificity of D-amino acylase (ninhydrin method)
- Format: biochemical
- stated_conditions: D-form of substrate; 37° C., 50 mM Tris-HCl buffer pH 8.0
- Method: A comparison of the substrate specificity of L-amino acylase of this invention with D-amino acylase is summarized as shown in Table 3. The enzyme activity was determined at 37° C. in 50 mM TrisCHl buffer pH 8.0 by ninhydrin method.
Threshold 20%: Relative activity (%) D-amino acylase strictly smaller gives Condition met, otherwise Condition not met.

Answer whether the compound "CC(=O)N[C@H](C(=O)O)C(C)C" has Relative activity (%) D-amino acylase strictly less than 20%
Condition met

###

# Relative activity (%) L-amino acylase annotations
- Test system: L-amino acylase
- assay_info: Substrate specificity of L-amino acylase (ninhydrin method)
- Type: biochemical, Alcaligenes denitrificans DA181
- stated_conditions: D-form of substrate; 37° C., 50 mM Tris-HCl buffer pH 8.0
- Protocol: This enzyme may hydrolyze N-acetyl-L-amino acids with a higher reactivity, but hydrolyze the N-acetyl-D-amino acids with a lower reactivity. A comparison of the substrate specificity of L-amino acylase of this invention with D-amino acylase is summarized as shown in Table 3. The enzyme activity was determined at 37° C. in 50 mM TrisCHl buffer pH 8.0 by ninhydrin method.

Solved entries:
compound	study_target	measurement_label	observed_value
CC(C)[C@H](NC(=O)CCl)C(=O)O [N-chloroacetyl-valine]	L-amino acylase	Relative activity (%) L-amino acylase	0.8%
CC(=O)N[C@@H](Cc1ccccc1)C(=O)O [N-acetyl-phenylalanine]	L-amino acylase	Relative activity (%) L-amino acylase	0.9%
CC(=O)N[C@H](C(=O)O)C(C)C [N-acetyl-valine]	L-amino acylase	Relative activity (%) L-amino acylase	7%
CSCC[C@H](NC(C)=O)C(=O)O [N-acetyl-methionine]	L-amino acylase	Relative activity (%) L-amino acylase	0.12%
CC(=O)N[C@@H](CC(N)=O)C(=O)O [N-acetyl-asparagine]	L-amino acylase	Relative activity (%) L-amino acylase	0%
CC[C@@H](C)[C@H](NC(C)=O)C(=O)O [N-acetyl-alloisoleucine]	L-amino acylase	Relative activity (%) L-amino acylase	0%

Name the recorded Relative activity (%) L-amino acylase for CC(=O)N[C@@H](Cc1c[nH]c2ccccc12)C(=O)O [N-acetyl-tryptophan] .
0.9%

Name the recorded Relative activity (%) L-amino acylase for CC(=O)N[C@@H](C)C(=O)O [N-acetyl-alanine] .
0%

Name the recorded Relative activity (%) L-amino acylase for CC(=O)N[C@@H](CC(C)C)C(=O)O [N-acetyl-leucine] .
2%

Name the recorded Relative activity (%) L-amino acylase for CC(=O)N[C@@H](C(=O)O)c1ccccc1 [N-acetyl-phenylglycine] .
0%

###

- Test system: L-amino acylase
- assay_info: Substrate specificity of L-amino acylase (ninhydrin method)
- Type: biochemical, Alcaligenes denitrificans DA181
- stated_conditions: L-form of substrate; 37° C., 50 mM Tris-HCl buffer pH 8.0
measurement_label: Relative activity (%) L-amino acylase
The answer is to be given in %; state only the numeric part.

Solved entries:
smiles_input	Relative activity (%) L-amino acylase
CC(=O)N[C@@H](Cc1c[nH]cn1)C(=O)O	0.08
CC(=O)N[C@@H](C)C(=O)O	78

Hello, I am looking for reported Relative activity (%) L-amino acylase with L-amino acylase for "CC(=O)N[C@H](C(=O)O)C(C)C" . Could you help?
95

Hello, I am looking for reported Relative activity (%) L-amino acylase with L-amino acylase for "CC(=O)N[C@@H](CCCNC(=N)N)C(=O)O" . Could you help?
0.04

Hello, I am looking for reported Relative activity (%) L-amino acylase with L-amino acylase for "CC(=O)N[C@@H](Cc1c[nH]c2ccccc12)C(=O)O" . Could you help?
11

###

- Test system: L-amino acylase
- Format: biochemical, Alcaligenes denitrificans DA181
- stated_conditions: metal ion 1 mM; 30 min, 50 mM Tris-HCl pH 8.0
# relative activity of L-amino acylase (%) annotations
The answer is to be given in %; state only the numeric part.

molecule	observed_value
[Cl][Mn][Cl] [MnCl2]	86
[Cl][Fe][Cl] [FeCl2]	15
[Cl-].[Cl-].[Zn+2] [ZnCl2]	61
[Cl][Ni][Cl] [NiCl2]	95

Hello, I am looking for reported relative activity of L-amino acylase (%) with L-amino acylase for [Cl][Cu][Cl] [CuCl2] . Could you help?
5

Hello, I am looking for reported relative activity of L-amino acylase (%) with L-amino acylase for [Cl-].[Cl-].[Co+2] [CoCl2] . Could you help?
120

Hello, I am looking for reported relative activity of L-amino acylase (%) with L-amino acylase for [Cl-].[Cl-].[Mg+2] [MgCl2] . Could you help?
98

Hello, I am looking for reported relative activity of L-amino acylase (%) with L-amino acylase for [Cl][Pb][Cl] [PbCl2] . Could you help?
50

Hello, I am looking for reported relative activity of L-amino acylase (%) with L-amino acylase for [Ba+2].[Cl-].[Cl-] [BaCl2] . Could you help?
92

Hello, I am looking for reported relative activity of L-amino acylase (%) with L-amino acylase for [Cl-].[Cl-].[Sr+2] [SrCl2] . Could you help?
80

Hello, I am looking for reported relative activity of L-amino acylase (%) with L-amino acylase for [Ca+2].[Cl-].[Cl-] [CaCl2] . Could you help?
94

Hello, I am looking for reported relative activity of L-amino acylase (%) with L-amino acylase for [Cl][Cd][Cl] [CdCl2] . Could you help?
16

###

- Test system: D-amino acylase
- assay_info: Substrate specificity of D-amino acylase (ninhydrin method)
- Assay type: biochemical
- stated_conditions: D-form of substrate; 37° C., 50 mM Tris-HCl buffer pH 8.0
measurement_label: Relative activity (%) D-amino acylase
The answer is to be given in %; state only the numeric part.

Solved entries:
smiles_input	measurement_label	unit_of_measure	observed_value
CC[C@@H](C)[C@H](NC(C)=O)C(=O)O	Relative activity (%) D-amino acylase	%	12
CC(=O)N[C@@H](C)C(=O)O	Relative activity (%) D-amino acylase	%	25
CC(=O)N[C@@H](C(=O)O)c1ccccc1	Relative activity (%) D-amino acylase	%	5
CC(=O)N[C@@H](Cc1ccccc1)C(=O)O	Relative activity (%) D-amino acylase	%	81

Name the recorded Relative activity (%) D-amino acylase for "CC(=O)N[C@@H](Cc1c[nH]c2ccccc12)C(=O)O" .
33

Name the recorded Relative activity (%) D-amino acylase for "CC(=O)N[C@@H](CC(C)C)C(=O)O" .
60

Name the recorded Relative activity (%) D-amino acylase for "CC(=O)N[C@@H](CC(N)=O)C(=O)O" .
17

Name the recorded Relative activity (%) D-amino acylase for "CC(C)[C@H](NC(=O)CCl)C(=O)O" .
66

Name the recorded Relative activity (%) D-amino acylase for "CSCC[C@H](NC(C)=O)C(=O)O" .
100

###

- Test system: L-amino acylase
- assay_info: Substrate specificity of L-amino acylase (ninhydrin method)
- Type: biochemical, Alcaligenes denitrificans DA181
- stated_conditions: L-form of substrate; 37° C., 50 mM Tris-HCl buffer pH 8.0
# Relative activity (%) L-amino acylase annotations
The answer is to be given in %; state only the numeric part.

Name the recorded Relative activity (%) L-amino acylase for "CSCC[C@H](NC(C)=O)C(=O)O" .
30

Name the recorded Relative activity (%) L-amino acylase for "CC(C)[C@H](NC(=O)CCl)C(=O)O" .
100

Name the recorded Relative activity (%) L-amino acylase for "CC(=O)N[C@@H](CC(=O)O)C(=O)O" .
1

Name the recorded Relative activity (%) L-amino acylase for "CC(=O)N[C@@H](CC(N)=O)C(=O)O" .
3

Name the recorded Relative activity (%) L-amino acylase for "CC(=O)N[C@@H](CCC(=O)O)C(=O)O" .
0.12

Name the recorded Relative activity (%) L-amino acylase for "CC(=O)N[C@@H](Cc1ccccc1)C(=O)O" .
34

Name the recorded Relative activity (%) L-amino acylase for "CC(=O)N[C@@H](Cc1ccc(O)cc1)C(=O)O" .
36

Name the recorded Relative activity (%) L-amino acylase for "CC(=O)N[C@@H](CC(C)C)C(=O)O" .
10
